target: cultured rat pituitary cells (Rattus norvegicus, UniProt P35353)
Sequence (P35353 24-415): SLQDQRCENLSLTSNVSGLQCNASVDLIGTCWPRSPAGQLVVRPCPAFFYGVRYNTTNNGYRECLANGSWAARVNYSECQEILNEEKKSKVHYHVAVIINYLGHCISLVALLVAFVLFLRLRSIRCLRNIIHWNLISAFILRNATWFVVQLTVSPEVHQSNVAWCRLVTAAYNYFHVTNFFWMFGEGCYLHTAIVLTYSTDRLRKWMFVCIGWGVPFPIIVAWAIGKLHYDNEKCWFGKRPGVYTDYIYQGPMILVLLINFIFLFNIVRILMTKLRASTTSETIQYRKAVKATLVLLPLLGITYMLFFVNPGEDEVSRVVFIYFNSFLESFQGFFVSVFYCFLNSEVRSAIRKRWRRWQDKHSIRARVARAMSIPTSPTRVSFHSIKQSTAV
assay explanation: Stimulation of ACTH and β-endorphin secretion by cultured rat pituitary cells (general procedure of Example III)
Assay type: cell-based
reported conditions: general procedure of Example III
Square brackets hold non-standard residues; d marks the D form. Nle = CCCC[C@H](N)C(=O)O
measured quantity: secretion of ACTH and β-END-LI

> print(dat)
                                  substance    observed
1  H-SQEPPISLELTFHLLRE[Nle]LE[Nle]AKAEQEAEQAALNRLLLEEA-NH2 [[Glu^9, Nle^18' ^21]-AHC]  stimulates
2  H-SEEPPISLDLTFHLLREVLE[Nle]ARAEQLAQQAYLNRKLMEEI-NH2 [[Nle^21, Tyr^32, Leu^33, Glu^40]-rCRF]  stimulates
3  H-SEEPPISLELTFHLLREVLE[Nle]ARAEQLAEQAHLNRKLMEII-NH2 [[Glu^9, Nle^21, Glu^29, Leu^33]-rCRF]  stimulates
4  H-YSEEPPISLDLTFHLLREVLEMARAEQLAEQAHSNRKLMEII-NH2 [[Tyr-Ser^1, Glu^29]-rCRF]  stimulates
